Data credit: patent US9682983B2

biological target: human ALK2 (Homo sapiens (Human), UniProt Q04771); assay: LANCE Ultra ULight enzymatic assay (FOP Enzymatic Assay), ALK2; format: biochemical; conditions: read-out: ALK2 IC50 (nM) at 10 μM ATP; 10 μM ATP
Sequence (Q04771 21-509): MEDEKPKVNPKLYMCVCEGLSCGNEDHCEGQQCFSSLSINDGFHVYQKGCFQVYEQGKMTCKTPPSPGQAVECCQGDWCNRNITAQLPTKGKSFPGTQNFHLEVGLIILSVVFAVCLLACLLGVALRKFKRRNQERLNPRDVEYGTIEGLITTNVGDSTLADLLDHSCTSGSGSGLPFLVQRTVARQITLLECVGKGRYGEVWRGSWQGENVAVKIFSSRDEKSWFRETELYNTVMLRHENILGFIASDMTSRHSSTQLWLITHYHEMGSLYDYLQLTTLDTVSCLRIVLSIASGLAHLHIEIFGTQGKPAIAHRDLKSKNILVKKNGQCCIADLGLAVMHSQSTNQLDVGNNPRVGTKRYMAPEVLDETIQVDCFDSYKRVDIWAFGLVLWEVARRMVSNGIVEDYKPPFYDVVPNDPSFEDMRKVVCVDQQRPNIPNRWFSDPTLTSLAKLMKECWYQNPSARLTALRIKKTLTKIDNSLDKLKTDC
measured.metric: IC50 (nM)
Numbers only, in nM.

The cases that follow already have their IC50 on record.
compound="OCc1ccc2c(-c3cnn4cc(-c5ccc(N6CCNCC6)cc5)cnc34)ccnc2c1 [Compound 16]" endpoint_value=102
compound="c1ccc2c(-c3cnn4cc(-c5ncc(N6CCNCC6)s5)cnc34)ccnc2c1 [Compound 7]" endpoint_value=19
compound="C[C@@H]1CNC[C@H](C)N1c1ccc(-c2cnc3c(-c4cccc5ncccc45)cnn3c2)cn1 [Compound 34]" endpoint_value=56
compound="NC(=O)c1ccc2c(-c3cnn4cc(-c5ccc(N6CCNCC6)cc5)cnc34)ccnc2c1 [Compound 15]" endpoint_value=127
compound="Cc1ccc2c(-c3cnn4cc(-c5ccc(OC6CCN(C)CC6)cn5)cnc34)cccc2n1 [Compound 60]" endpoint_value=155
compound="c1cc(-c2cnn3cc(-c4ccc(N5CCNCC5)nc4)cnc23)c2cccnc2c1 [Compound 30]" endpoint_value=84

q: So what does the record say about IC50 for c1ccc2c(-c3cnn4cc(-c5cnc(N6CCNCC6)nc5)cnc34)ccnc2c1 [Compound 5] ?
a: 103

----------
molecular target: human ALK2 (Homo sapiens (Human), UniProt Q04771); assay: LANCE Ultra ULight enzymatic assay (FOP Enzymatic Assay), ALK2; assay type: biochemical; details: read-out: ALK2 IC50 (nM) at 10 μM ATP; 10 μM ATP
Exercise: state measured IC50 for each of the molecules provided.
Answers are plain numbers, in nM.

The cases that follow already have their IC50 on record.
molecule="Clc1cc(-c2cnc3c(-c4ccnc5ccccc45)cnn3c2)ccc1N1CCNCC1 [Compound 35]" endpoint_value=30
molecule="CC(=O)Nc1ccc2c(-c3cnn4cc(-c5ccc(N6CCNCC6)cc5)cnc34)ccnc2c1 [Compound 26]" endpoint_value=105
molecule="O=C(O)c1cccc2c(-c3cnn4cc(-c5ccc(N6CCNCC6)cc5)cnc34)ccnc12 [Compound 22]" endpoint_value=88
molecule="Cc1cc(-c2cnn3cc(-c4ccc(N5[C@H](C)CNC[C@@H]5C)cc4)cnc23)c2ccccc2n1 [Compound 11]" endpoint_value=7.7
molecule="c1cc(-c2cnn3cc(-c4ccc(OCCN5CCNCC5)nc4)cnc23)c2cccnc2c1 [Compound 42]" endpoint_value=14

For each entry beneath this line, provide reported IC50.
1. c1ccc2c(-c3cnn4cc(-c5ccc(N6C[C@@H]7C[C@H]6CN7)cc5)cnc34)ccnc2c1 [Compound 6]
2. Clc1cc(-c2cnc3c(-c4cccc5ncccc45)cnn3c2)ccc1OCCN1CCCCC1 [Compound 46]
3. c1cc(-c2cnn3cc(-c4ccc(OCCN5CCCCC5)nc4)cnc23)c2cccnc2c1 [Compound 29]
4. c1ccc2c(-c3cnn4cc(-c5ccc(N6CCNCC6)cn5)cnc34)ccnc2c1 [Compound 3]
5. Cc1ccc2c(-c3cnn4cc(-c5ccc(OC(C)(C)CN6CCCCC6)cn5)cnc34)cccc2n1 [Compound 58]
6. N#Cc1cc(-c2cnc3c(-c4ccnc5ccccc45)cnn3c2)ccc1N1CCNCC1 [Compound 37]
7. NCc1cccc2c(-c3cnn4cc(-c5ccc(N6CCNCC6)cc5)cnc34)ccnc12 [Compound 25]

a:
[12, 16, 127, 16, 107, 24, 482]

For each entry beneath this line, provide reported IC50.
1. N#Cc1cc(-c2cnc3c(-c4cccc5ncccc45)cnn3c2)ccc1N1CCNCC1 [Compound 38]
2. Oc1ccc2c(-c3cnn4cc(-c5ccc(N6CCNCC6)cc5)cnc34)ccnc2c1 [Compound 28]

a:
1: 47; 2: 31
